Data provenance is the nanobody polyreactivity screen of Harvey et al. (2022).

# Measurement notes: yeast display, Sf9 membrane polyspecificity reagent, FACS + sequencing; frameworks hold sequencing errors
Readout: polyreactivity (PSR sort gate)

QVQLVESGGGLVQAGGSLRLSCAASGYTFSYNAMGWYRQAPGKERELVARITRGTSTYADSVKGRFTISRDNAKNTVYLQMNSLKPEDTAVYYCAARPGSGRSYTSDYWGQGSQVTVSS
high polyreactivity
QVQHVDSGGGLVQAGGSLRLSCAASGRILYSYAMGWYRQAPGKERELVAVITTRGGTYYADSVKGRFTISRDNAKNTVYLQMNSLKPEDTAVYYCNARRYPSYKYDYWGQGTQVTVSS
high polyreactivity
QVQLVESGGGLVQAGGSLRLSCAASGSTFAYYAMGWYRQAPGKERELVAAISVSGGRTYYADSVKGRFTISRDNAKNTVYLQMNSLKPEDTAVYYCAARLWRDYYWGQGTQVTVSS
high polyreactivity
QVQLVESGGGLVQAGGSLRLSCAASGSIFSYYAMGWYRQAPGKERELVAANDWNVDSTYYADSVKGRFTISRDNAKNTVYLQLNSLNPEDTAVYYCNAEVYYFYTRYTWYLYDYWRQGTQVTVSS
low polyreactivity
QVQRVESGGGLVQAGGSLRLSCAASGRIFLTNARGWYRQAPGKERELVPAITSGGSTYYADSVKGRFTISRDNAKNTVYLQMNSLKPEDTAVYYCNDDTDRYWPYEYDYWGQGTQVTVSS
low polyreactivity
QVQLVESGGGLVQAGGSLRLSCAASGGTFWSYAMGLYRQAPGKEREFVAAITTSAGRTNFADSVKGRFTISRDNAKNTFYLQMNSLKPEDTAVYYCAARSAYPGLGYGFDYWGQGTQVTVSS
low polyreactivity

Consider the record given below.
Summary for this sequence, "QVQLVESGGGLVQAGGSLRLSCAASGRILASYAMGWYRQAPGKERELVAAIRYRGSTSYADSVKGRFTISRDNAKNTVYLQMNSLKPEDTAVYYCAAKWHVRGRGARYRYDYDYWGQGTQVTVSS" : polyreactivity (PSR sort gate) is low polyreactivity

---

# Measurement notes: yeast display, Sf9 membrane polyspecificity reagent, FACS + sequencing; frameworks hold sequencing errors
Readout: polyreactivity (PSR sort gate)

Known results for sequences:
QVQLVESGGGLVQAGGSLRLSCAASGRIFRWYAMGWYRQAPGKERELVAAISSRGGSTYYADSVKGRFTISRDNAKNTVYLQMNSLKPEDTAVYYCAADTSGWQPRYDYWGQGTQVTVSS
high polyreactivity
QVQLVESGGGLVQAGGSLRLSCAASGRTFTFNAMGWYRQAPGKERELVAAITRSGGRTYYADSVKGRFTISRDNAKNTVYLQMNSLKPEDTAVYYCAAEWEYSWYDYDYWGQGTQVTVSS
high polyreactivity
QDQLLESGGGLVQAGGSLRLSCAASGSTFGANAMGWYRQAPGKEREFVAAISRSGLRTYYADSVKGRFTNSRDYAKNTVYIQMNSLKPEDTAVYYCSADCYWWTYTRYDYWGQGSQVTVSS
low polyreactivity
QVQLQESGGGLVQAGGSLRLSCAASGTISTDSYMGWYRQAPGKERKFVASIGYGGITYYADSVKGRSTISRDSAKNTVYLQMNSLKPEDTAVYYCAVNSYYPDHYWYWGRGTQVTVSS
high polyreactivity
QVQLVESGGGLVQAGGSLRLSCAASGITFPYYAMGWYRQAPGKERELVAAITIRSGRTYYADSVKGRFTISRDNAKNTVYLQMNSLKPEDTAVYYCAARLSNTYGYWGQGTQVTVSS
high polyreactivity

Entry "QVQLVESGGGLVQAGGSLRLSCAASGFIITYYAMGWYRQATGKDRELVAVISWSGGTTYYAESVKGRFTISRDNATNTVYLQMNSLKPEDTAVYYCAAYRYFRPGDYWGQGTQVTVSS" , polyreactivity (PSR sort gate) reported as low polyreactivity

Please fill in: polyreactivity (PSR sort gate) reported for "QVQLVESGVCLVQAGGSLRLSCAASGRIFYNYAMGWYRQAPGKERELVADISSSGTLTYYSDSVKGRFTISRDNAKNTVYLHMNSLKPEDTAVYYCAARYWFRFQYDYWGQGTQLTVSS" = high polyreactivity

Measured polyreactivity (PSR sort gate), "QVQLVESGGGLVQAGGSLRLSCAASGSTSLVYAMGWYRQAPGKERELVAAISWSGGSTYYADSVKGRFTISRDNAKNTVYLQMKSLKPEDTAVYYCAAEYYGYWEYDYWGQGTQVTVSS" : high polyreactivity

Sample "QVQLVESGGGLVQAGGSLRLSCAASGLIFTYYAMGWYRQAPGKERELVAGISSGTNTNYADSVKGRFTISRDNAKNTVYLQMNSLKPEDTALYYCATTRGYQFVAYGYWGQGTQVTVSS" ; polyreactivity (PSR sort gate) observed: low polyreactivity

Input "QVHLVESGGGLVQAGGSLRLSCAASGRTFAYNTMGWYRQAPGKERELVAAISSDGSTNYADSVKGRFTISRDNAKNTVYLQMNSLKPEDTAVYYCAKGEGTGYSDTQVYEHDYWGQGTQVTVSS" . Output polyreactivity (PSR sort gate): low polyreactivity

The measured polyreactivity (PSR sort gate) associated with "QVQLVESGGGLVQAGGSLRLSCAASGGTFGAYAMGWYRQAPGKERELVAAINVGGGSTYYADSVKGRFTISRDNAKNTVDLQMNSLKPEATAGYYCAKDLYDGYWRGDYWGQGTQVTVSS" reads low polyreactivity

Noted for "QVQLVESGGGLVQAGGSLRLSCAASGSTFSLYAMGWYRQAPGKERELVASSRWSGGRTYDADSVKGRFTISRDNAKNTVYLQMNSLKPEDTAVYYCAAAWRYGYGYLGQGTQVTVSS" : its polyreactivity (PSR sort gate) reads high polyreactivity

sequence "QVQLVESGGGLVQAGGSLRISCAASGSTFDYNAMGWDRQAPGKERELVAVISQSGTRTYYADSVKGRFTISRDNAKNTVYLQMNSLKPEDTAVYYCAARSPYSYRYDYWGQGTQVTVSS" , polyreactivity (PSR sort gate) observed: high polyreactivity

The sequence listed as "QVQLVESGGGLVQAGGSLRLSCAASGSIFPKYAMGWYRQAPGKERELVATISYRGGRTYYADSVKGRFTISRDNAKNTVYLQMNSLKPEDTAVYYCAGADYGSYPTYGYFEYYYWGQGTQVTVSS" shows polyreactivity (PSR sort gate) equal to low polyreactivity
